Readings of pIC50 for the listed molecules
System: P388S cells
Assay: 72-hour growth inhibition of drug-sensitive P388S cells by anticancer drug alone or with modifier (Table I)
Format: cell-based, murine
Settings: Mus musculus, P388/S, 72 h, P388S; anticancer drug with modifier VER (verapamil) 5 μg/mL; 72 h; mean of two experiments in triplicate; read-out: ID50 (concentration that inhibits 72-hour cell growth by 50%)
Structures can show the parent of a compound that is named as a salt.
Quick note: pIC50 means taking -log10 of the concentration in moles per liter.

- COc1cccc2c1C(=O)c1c(O)c3c(c(O)c1C2=O)C[C@@](O)(C(=O)CO)C[C@@H]3O[C@H]1C[C@H](N)[C@H](O)[C@H](C)O1 [Adriamycin]: 6.82
- COc1cccc2c1C(=O)c1c(O)c3c(c(O)c1C2=O)C[C@@](O)(C(C)=O)C[C@@H]3O[C@H]1C[C@H](N)[C@H](O)[C@H](C)O1 [Daunomycin]: 7.03
- COc1cc(NCc2ccc3nc(N)nc(N)c3c2C)cc(OC)c1OC [Trimetrexate]: 7.92
- CC[C@]1(O)C[C@H]2CN(CCc3c([nH]c4ccccc34)[C@@](C(=O)OC)(c3cc4c(cc3OC)N(C=O)[C@H]3[C@@](O)(C(=O)OC)[C@H](OC(C)=O)[C@]5(CC)C=CCN6CC[C@]43[C@@H]65)C2)C1 [Vincristine]: 7.68

Shifting focus to the molecule that follows.
Recorded pIC50 (molecule CNCCNc1ccc2c3c(nn2CCNCCO)-c2c(O)ccc(O)c2C(=O)c13 [CI-937, dihydrochloride] ): 6.83

----------
Test system: P388R cells
Test: Potentiation of adriamycin activity and cell growth in P388 resistant cells (Table II)
Assay type: cell-based, murine
Settings: Mus musculus, P388; test compound at 5 μM; read-out: % of Control Cell Growth
metric: activity at 5 µM (%)
Please give a number only; it is taken to be in %.

# count of solved cases: 6
* CCCSc1ccccc1N1CCN(CCCCn2c(=O)[nH]c3cc(Cl)ccc3c2=O)CC1.Cl [Example 9, monohydrochloride] | 100
* CC(C)Sc1ccccc1N1CCN(CCCCn2c(=O)[nH]c3ccccc3c2=O)CC1.Cl [Example 6, monohydrochloride] | 91
* CCCSc1ccccc1N1CCN(CCCCn2c(=O)[nH]c3ccc(Cl)cc3c2=O)CC1.Cl [Example 3, monohydrochloride] | 100
* CCCSc1ccccc1N1CCN(CCCCn2c(=O)c3cc(OC)c(OC)cc3n(C)c2=O)CC1 | 46
* CCCSc1ccccc1N1CCN(CCCCn2c(=O)c3cccc(OC)c3n(C)c2=O)CC1.Cl [Example 18, monohydrochloride] | 100
* CCCSc1ccccc1N1CCN(CCCCCn2c(=O)[nH]c3cc(OC)c(OC)cc3c2=O)CC1 | 53

Recorded activity at 5 µM (compound CCSc1ccccc1N1CCN(CCCCn2c(=O)[nH]c3ccccc3c2=O)CC1.Cl [Example 5, monohydrochloride] ): 79

----------
Tested on: P388/ADR cells
Test: 72-hour growth inhibition of adriamycin-resistant P388/ADR cells by anticancer drug alone or with modifier (Table I)
Format: cell-based, murine
Details: Mus musculus, anticancer drug with modifier VER (verapamil) 5 μg/mL, mean of two experiments in triplicate, read-out: ID50 (concentration that inhibits 72-hour cell growth by 50%)
Counter-ions that a name gives are not always drawn.
metric: log10 of IC50 (log10 of the value in nM)
Would you kindly interpret these values as log10 of IC50 expressed in nM?

# count of solved cases: 4
• COc1cccc2c1C(=O)c1c(O)c3c(c(O)c1C2=O)C[C@@](O)(C(=O)CO)C[C@@H]3O[C@H]1C[C@H](N)[C@H](O)[C@H](C)O1 [Adriamycin] = 2.85
• COc1cccc2c1C(=O)c1c(O)c3c(c(O)c1C2=O)C[C@@](O)(C(C)=O)C[C@@H]3O[C@H]1C[C@H](N)[C@H](O)[C@H](C)O1 [Daunomycin] = 2.52
• COc1cc(NCc2ccc3nc(N)nc(N)c3c2C)cc(OC)c1OC [Trimetrexate] = 1.46
• CNCCNc1ccc2c3c(nn2CCNCCO)-c2c(O)ccc(O)c2C(=O)c13 [CI-937, dihydrochloride] = 2.72

Shifting focus to the molecule that follows.
Given the molecule CC[C@]1(O)C[C@H]2CN(CCc3c([nH]c4ccccc34)[C@@](C(=O)OC)(c3cc4c(cc3OC)N(C=O)[C@H]3[C@@](O)(C(=O)OC)[C@H](OC(C)=O)[C@]5(CC)C=CCN6CC[C@]43[C@@H]65)C2)C1 [Vincristine] and test system P388/ADR cells, the measured log10 of IC50 is 1.48
